The values you see were collected from patent US6528532B1.

Experiment: in vitro
Assay type: cell-based
Conditions: human
Experimental: To evaluate the EC50 of our compounds, various drug concentrations are incubated with the infected cell for six days and then the metabolic activity of the cells is monitored by the MTT assay. (See A. J. Japour et al, Antimicrobial Agents and Chemotherapy, 37, 1095-1101, 1993 and R. Pauwels et al. Journal of Virological Methods, 20, 309-321, 1988). We use the laboratory viral strain NL4.3 as wild type virus and the cell line used is MT-4 which is a T-cell line highly sensitive to HIV-1. […]
Hi! Could you tag entries with IC50 at 6 days below 5 µM as True, and those at or above as False? Much appreciated.

Look over these answered cases.
Cc1ccc(S(=O)(=O)N(CC(C)C)[C@H](CO)CCCCNC(=O)N(Cc2ccccc2)Cc2cccc([N+](=O)[O-])c2)cc1 :: True
CC(C)CN([C@H](CO)CCCCNC(=O)N(Cc1ccc(F)cc1)Cc1ccc2c(c1)OCO2)S(=O)(=O)c1ccc(N)cc1 :: False
CC(C)CN([C@H](CO)CCCCNC(=O)N(Cc1ccccc1)Cc1ccc2c(c1)OCO2)S(=O)(=O)c1ccc(N)cc1 :: False
COc1cc(CN(Cc2ccc3c(c2)OCO3)C(=S)NCCCC[C@@H](CO)N(CCC(C)C)S(=O)(=O)c2ccc(N)cc2)cc(OC)c1OC :: False
CC(C)CCN([C@H](CO)CCCCNC(=O)N(Cc1ccncc1)Cc1ccc2c(c1)OCO2)S(=O)(=O)c1ccc(N)cc1 :: False

For this compound, is IC50 at 6 days lower than 5 µM? `CC(C)CN([C@H](CO)CCCCNC(=O)N(Cc1ccc2c(c1)OCO2)Cc1ccc2c(c1)OCO2)S(=O)(=O)c1ccc(N)cc1`
False

Please let me know if `Cc1ccc(S(=O)(=O)N(CC(C)C)[C@H](CO)CCCCNC(=O)N(Cc2ccccc2)Cc2ccccc2[N+](=O)[O-])cc1` shows IC50 at 6 days below 5 µM.
True
